Below, each of the compounds is paired with its reported IC50 value.
# protocol-description: Antitumor activity against human LOX cells after 3 days by WST1 assay
# Type: functional, cell-based
# recorded-conditions: 72 h

>  <structure-smiles>
CN(C)c1cc(=O)[nH]c(=O)n1[C@@H]1O[C@H](CO)[C@@H](O)[C@H]1O

>  <measure>
IC50

>  <result-value>
> 50 µM

$$$$

Consider N#Cc1cc(=O)[nH]c(=O)n1[C@@H]1O[C@H](CO)[C@@H](O)[C@H]1O . Its measured IC50 is > 50 µM

Consider [N-]=[N+]=Nc1c(F)c(=O)[nH]c(=O)n1[C@@H]1O[C@H](CO)[C@@H](O)[C@H]1O . Its measured IC50 is 2.3 µM

Consider O=c1[nH]c(=O)n([C@@H]2O[C@H](CO)[C@@H](O)[C@H]2O)c(I)c1F . Its measured IC50 is > 50 µM
